SYSTEM_UNDER_TEST: human activated kallikrein enzyme (Homo sapiens)
PROCEDURE_TEXT: Plasma kallikrein inhibition, fluorogenic PFR-AMC substrate, 500 pM activated kallikrein format
Format: biochemical
MEASUREMENT_CONDITIONS: 500 pM activated kallikrein, 300 uM PFR-AMC, 30 min preincubation, 10 min reaction; read-out: Primary Dose Response Assay: Average EC50
pEC50: −log10 of the molar value.
ASSAY_ENDPOINT: pEC50

## Task Look up pEC50: O=C(Nc1cc(NCc2cn3cc(C4CC4)cc(N4CCOC4=O)c3n2)ncn1)[C@H]1C[C@@H]1c1cc(Cl)ccn1 (racemic) [Example I-173]
## Result > 9.00

## Task Looking for the measured pEC50 of O=C(Nc1cc(NCc2cn3cc(C4CC4)cc(N4CCN5CC(F)(F)CC5C4)c3n2)ncn1)[C@H]1C[C@@H]1c1cccc(Cl)c1 (stereo partly drawn) [Example I-197] , can you help?
## Result 7.00 to 8.00

## Task Field request: pEC50 | item: O=C(Nc1cc(NCc2cn3cc(C4CC4)ccc3n2)ncn1)[C@H]1C[C@@H]1c1cc(Cl)ccc1O (racemic) [Example 313]
## Result 8.00 to 9.00

## Task Tell me the measured pEC50 of Cc1ccnc([C@H]2C[C@@H]2C(=O)Nc2nccn3nc(Cc4cn5cc(C6CC6)cc(N6CC(=O)N(C)C6=O)c5n4)cc23)n1 [Example I-649] , please.
## Result > 9.00

## Task Which pEC50 value is on record for Cc1ccc(F)c([C@H]2C[C@@H]2C(=O)Nc2cc(NCc3cn4cc(C5CC5)cc(N5CC(=O)N(C)C5=O)c4n3)ncn2)n1 (racemic) [Example 502] ?
## Result > 9.00

## Task Bench note: what pEC50 did O=C(O)c1nc(NCc2cn3cc(C4CC4)ccc3n2)cc(NC(=O)[C@H]2C[C@@H]2c2cccc(Cl)c2)n1 (racemic) [Example 112] show?
## Result 8.00 to 9.00

###

SYSTEM_UNDER_TEST: human activated kallikrein enzyme (Homo sapiens, UniProt P03952)
Sequence (P03952 391-638 limits assumed): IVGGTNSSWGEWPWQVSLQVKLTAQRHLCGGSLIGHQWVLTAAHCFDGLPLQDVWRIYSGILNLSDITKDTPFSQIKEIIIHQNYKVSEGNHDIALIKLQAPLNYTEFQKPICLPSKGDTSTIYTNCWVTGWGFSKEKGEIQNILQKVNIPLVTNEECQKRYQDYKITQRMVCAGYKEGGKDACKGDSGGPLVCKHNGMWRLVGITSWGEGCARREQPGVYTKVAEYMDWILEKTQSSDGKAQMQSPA
Sequence (P03952 20-390 partner limits assumed): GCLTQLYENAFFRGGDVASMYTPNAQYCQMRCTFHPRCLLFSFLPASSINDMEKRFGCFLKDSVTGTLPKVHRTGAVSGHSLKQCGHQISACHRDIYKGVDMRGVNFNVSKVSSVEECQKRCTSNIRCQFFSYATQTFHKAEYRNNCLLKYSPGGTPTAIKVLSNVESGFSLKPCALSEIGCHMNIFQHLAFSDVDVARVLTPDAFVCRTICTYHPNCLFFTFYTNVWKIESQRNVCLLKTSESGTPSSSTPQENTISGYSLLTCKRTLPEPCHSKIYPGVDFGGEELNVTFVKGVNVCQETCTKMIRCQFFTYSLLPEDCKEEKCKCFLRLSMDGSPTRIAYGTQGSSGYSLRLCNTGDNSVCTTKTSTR
PROCEDURE_TEXT: Plasma kallikrein inhibition, fluorogenic PFR-AMC substrate, 500 pM activated kallikrein format
Format: biochemical
MEASUREMENT_CONDITIONS: 500 pM activated kallikrein, 300 uM PFR-AMC, 30 min preincubation, 10 min reaction; read-out: Primary Dose Response Assay: Average EC50
So I've got a bunch of molecules here, and I need their EC50 values.

## Task # input molecule: Cc1ccnc([C@@H]2C[C@H]2C(=O)Nc2cc(NCc3cn4cc(C5CC5)cc(S(C)(=O)=O)c4n3)ncn2)n1 (single isomer, unassigned) ; wanted: its EC50
## Result 10 to 100 nM

## Task Quick one: EC50 of Cc1ccnc([C@H]2C[C@@H]2C(=O)Nc2cc(NC(C)c3cn4cc(C5CC5)cc(N5CC(=O)N(C)C5=O)c4n3)ncn2)n1 (relative stereo) ?
## Result < 1 nM

## Task State the recorded EC50 for this entry: O=C(Nc1cc(NCc2cn3cc(C4CC4)ccc3n2)ncn1)[C@H]1C[C@@H]1c1cc(Cl)ccn1 (single isomer, unassigned) [Example I-266]
## Result 100 to 1000 nM

## Task What does the data say about its EC50? Entry: CN1CCC(Nc2cc(C3CC3)cn3cc(CNc4cc(NC(=O)[C@H]5C[C@@H]5c5cccc(Cl)c5)ncn4)nc23)CC1
## Result < 1 nM

## Task Given O=C(Nc1cc(N2CC[C@H](O)[C@H]2c2cn3cc(C4CC4)ccc3n2)ncn1)[C@H]1C[C@@H]1c1cccc(Cl)c1 , state its recorded EC50.
## Result > 6000 nM

## Task I'd like to know its EC50. The molecule in question is Cc1ccnc([C@H]2C[C@@H]2C(=O)Nc2cc(N3C[C@@H](O)C[C@@H]3c3cn4cc(C5CC5)ccc4n3)ncn2)n1 (relative stereo)
## Result < 1 nM

## Task Bench note: what EC50 did N#Cc1ccc(Cl)cc1[C@H]1C[C@@H]1C(=O)Nc1cc(NCc2cn3cc(C4CC4)cc(N4CCCC4=O)c3n2)ncn1 (racemic) show?
## Result < 1 nM

## Task I am curious: what EC50 value has been reported for COc1cc([C@H]2C[C@@H]2C(=O)Nc2cc(NCc3cn4cc(C5CC5)ccc4n3)ncn2)cc(Cl)n1 (racemic) ?
## Result > 6000 nM

## Task # get_value(readout='EC50', item= Cc1ccnc([C@H]2C[C@@H]2C(=O)Nc2cc(NCc3cn4cc(C5CC5)cc(N5CC(=O)N(C)C5=O)c4n3)nc(C3CC3)n2)n1 )
## Result < 1 nM

## Task # input molecule: CN1C(=O)CN(c2cc(C3CC3)cn3cc(CNc4cc(NC(=O)[C@H]5C[C@@H]5c5nccc(CF)n5)ncn4)nc23)C1=O (racemic) ; wanted: its EC50
## Result < 1 nM

## Task Recorded EC50 of COCc1cnc(NC(=O)[C@H]2C[C@@H]2c2nccc(C)n2)nc1OCc1cn2cc(C3CC3)cc(N3CC(=O)N(C)C3=O)c2n1 , please.
## Result < 1 nM

## Task Which EC50 value is on record for O=C([C@H]1C[C@@H]1c1cccc(Cl)c1)N(O)c1cc(NCc2cn3cc(C4CC4)ccc3n2)ncn1 ?
## Result > 6000 nM

## Task Entry COCc1cnc(NC(=O)[C@H]2C[C@@H]2c2nccc(C)n2)nc1NCc1cn2cc(C3CC3)cc(N3CC(=O)N(C)C3=O)c2n1 (racemic) : reported EC50 = ?
## Result < 1 nM

## Task I would be grateful if you could share the reported EC50 for Cc1ccnc([C@H]2C[C@@H]2C(=O)Nc2cc(NCc3cn4cc(C5CC5)cc(N5CC(=O)N(CCO)C5=O)c4n3)ncn2)n1 .
## Result < 1 nM

## Task Query (molecule): O=C(Nc1cc(NCc2cn3cc(C4CC4)cc(CO)c3n2)ccn1)[C@H]1C[C@@H]1c1cccc(Cl)c1 (racemic) [Example 98] ; field requested: EC50
## Result < 1 nM

## Task EC50 for O=C(Nc1cc(NCc2cn3cc(C4CC4)ccc3n2)ccn1)[C@H]1[C@H](CO)[C@@H]1c1cccc(Cl)c1 (racemic) ?
## Result 1 to 10 nM

## Task State the recorded EC50 for this entry: Cc1ccnc([C@H]2C[C@@H]2C(=O)Nc2cc(OC(C)c3cn4cc(C5CC5)cc(N5CC(=O)N(C)C5=O)c4n3)nc(C)n2)n1 (stereo partly drawn)
## Result < 1 nM

## Task Given O=C(Nc1cc(NCc2cn3cc(C4CC4)ccc3n2)ccn1)[C@H]1C[C@@H]1c1cc(Cl)ccn1 (single isomer, unassigned) [Example I-270] , state its recorded EC50.
## Result < 1 nM

## Task Can you look up the measured EC50 of O=C1CN(c2cc(C3CC3)cn3cc(CNc4cc(NC(=O)[C@H]5C[C@@H]5c5cc(Cl)ccn5)nc(O)n4)nc23)C(=O)N1 for me?
## Result < 1 nM

## Task Entry COCC(Nc1cc(NC(=O)[C@H]2C[C@@H]2c2nccc(C)n2)ncn1)c1cn2cc(C3CC3)cc(N3CC(=O)N(C)C3=O)c2n1 (stereo partly drawn) : reported EC50 = ?
## Result 1 to 10 nM

## Task What measured EC50 goes with Cc1ccnc([C@H]2C[C@@H]2C(=O)Nc2cc(N[C@H](C)c3cn4cc(C5CC5)cc(N5CCCC5=O)c4n3)ncn2)n1 ?
## Result < 1 nM

## Task If you can, please state the reported EC50 value of Cc1ccnc([C@H]2C[C@@H]2C(=O)Nc2nccc3nc(Cc4cn5cc(C6CC6)cc(N6CC(=O)N(C)C6=O)c5n4)oc23)n1 .
## Result < 1 nM

## Task Reported EC50, molecule Cc1ccnc([C@H]2C[C@@H]2C(=O)Nc2cc(NC(C)c3cn4cc(C5CC5)cc(N5CCN(C)C5=O)c4n3)nc(C)n2)n1 (stereo partly drawn) : ____
## Result < 1 nM

## Task Data request, read-out EC50, for Cc1ccnc([C@H]2C[C@@H]2C(=O)Nc2cc(OCc3cn4cc(C5CC5)cc(N5CC6(COC6)OC5=O)c4n3)nc(C)n2)n1
## Result < 1 nM

###

SYSTEM_UNDER_TEST: human activated kallikrein enzyme (Homo sapiens, UniProt P03952)
PROCEDURE_TEXT: Plasma kallikrein inhibition, fluorogenic PFR-AMC substrate, 500 pM activated kallikrein format
Type: biochemical
MEASUREMENT_CONDITIONS: 500 pM activated kallikrein, 300 uM PFR-AMC, 30 min preincubation, 10 min reaction; read-out: Primary Dose Response Assay: Average EC50
I'd be grateful if you could share measured EC50 for these entries.

## Task Look up EC50 for this molecule: CC(C)(C)OC(=O)Nc1ccc([C@H]2C[C@@H]2C(=O)Nc2cc(NCc3cn4cc(C5CC5)ccc4n3)ncn2)cc1Cl (racemic) [Example I-188]
## Result > 6000 nM

## Task Any idea what EC50 was measured for O=C(Nc1cc(N(CCO)Cc2cn3cc(C4CC4)ccc3n2)ncn1)[C@H]1C[C@@H]1c1cccc(Cl)c1 [Example 77] ?
## Result 10 to 100 nM

## Task Given the entry Cc1cc(NC(=O)[C@H]2C[C@@H]2c2nccc(C)n2)nc(OCc2cn3cc(C4CC4)cc(N4CC(=O)N(C)C4=O)c3n2)n1 [Example I-652] , report its measured EC50.
## Result < 1 nM

## Task What does the data say about its EC50? Entry: Cc1ccnc([C@H]2C[C@@H]2C(=O)Nc2cc(N[C@H](C)c3cn4cc(C(F)F)cc(N5CC(=O)N(C)C5=O)c4n3)nc(C)n2)n1 [Example 428]
## Result < 1 nM

## Task Could you tell me which EC50 is on file for O=C(Nc1cc(NCc2cn3cc(C4CC4)cc(N4C[C@@H]5C[C@@H]5C4=O)c3n2)ncn1)[C@H]1C[C@@H]1c1cccc(Cl)c1 (racemic) [Example 457] ?
## Result 1 to 10 nM

## Task Fill in: EC50 of COCc1nc(NC(=O)[C@H]2C[C@@H]2c2nccc(C)n2)cc(N[C@H](C)c2cn3cc(C4CC4)cc(N4CC(=O)N(C)C4=O)c3n2)n1 [Example 355] is ___
## Result < 1 nM

Cited source: patent US20240228488A1
